test: chemical genetic growth profiling, strain panel (AID 1159580);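 note: tested at 20 µM; growth read once vehicle control cultures reached saturation at 30 °C; lower values mean less growth of the strain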; settings: S. cerevisiae deletion strains, growth OD, locus YGL240W, strain doc1
The campaign covered roughly 5,500 compounds. About 2,000 (36%) were called active. Inconclusive results (about 18%) are left out. Cut-off read from the data, not from the text of the source: active = normalized growth mostly below about 0.91 (no sharp cut-off); inconclusive = no clear call, values can overlap the other calls; inactive = mostly above about 0.92. Some of the results follow.
Pick one: t for active, f for inactive

Example entries begin here.
{"columns": ["COMPOUND", "ANSWER LABEL"],
 "data": [
  ["CCCc1nc(C)c2c(=O)[nH]c(-c3cc(S(=O)(=O)N4CCN(CC)CC4)ccc3OCC)nn12", "f"],
  ["COP(N)(=O)SC (stereo not drawn)", "f"],
  ["CC(=O)O[C@@H]1c2c(ccc3ccc(=O)oc23)OC(C)(C)[C@@H]1OC(=O)CC(C)C", "f"]
]}

Enquiry: Outcome? `C=CCSSCC=C`
Return: f

Enquiry: Outcome? O=c1c(-c2ccc(O)cc2)coc2c(C3O[C@H](CO)[C@@H](O)[C@H](O)[C@H]3O)c(O)ccc12 (stereo partly drawn)
Return: f

Enquiry: Outcome? `O=C(CCCN1CCC2(CC1)C(=O)NCN2c1ccccc1)c1ccc(F)cc1`
Return: f

* * *

test: chemical genetic growth profiling, strain panel (AID 1159580);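 note: tested at 20 µM; growth read once vehicle control cultures reached saturation at 30 °C; lower values mean less growth of the strain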; settings: S. cerevisiae deletion strains, growth OD, locus YGL078C, strain dbp3, stronger effect = lower value
About 2,000 (36%) of roughly 5,500 compounds were called active. About 18% were inconclusive and are not listed. Some of the results follow.
Labelling: normalized growth reported below 1 becomes YES; at or above becomes NO.

{"columns": ["MOLECULE", "ANSWER LABEL"],
 "data": [
  ["CC1(C)C(O)CC(=O)C2(C)C1CC(O)C1(C)C2CCC2(C)C(c3ccoc3)OC(=O)C3OC321 (stereo unspecified)", "NO"]
]}

Below: the item to evaluate.
Enquiry: Problem: For the molecule `COc1cc(C)c2c(=O)c3c(O)cc(O)cc3oc2c1` , is normalized growth under 1?
Return: YES

* * *

assay: chemical genetic growth profiling, strain panel (AID 1159580);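 note: tested at 20 µM; growth read once vehicle control cultures reached saturation at 30 °C; lower values mean less growth of the strain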; conditions: S. cerevisiae deletion strains, growth OD, locus YPL106C, strain sse1
The whole screen tested about 5,500 compounds, of which about 2,000 (36%) were called active. Not shown: some 18% with an inconclusive outcome. Rule as the data show it: active = normalized growth mostly below about 0.91 (no sharp cut-off); inconclusive = no clear call, values can overlap the other calls; inactive = mostly above about 0.92. The list shows a part of the results.
Pick one: active, inactive

Example entries begin here.
{"columns": ["COMPOUND", "ANSWER LABEL"],
 "data": [
  ["O=C1CC2(CCCC2)CC(=O)N1CCCCN1CCN(c2ncccn2)CC1", "inactive"],
  ["CC1(C)S[C@@H]2[C@H](NC(=O)C(C(=O)O)c3ccccc3)C(=O)N2[C@H]1C(=O)O (some centres not stated)", "inactive"],
  ["O=C(Oc1cccc2cccnc12)c1ccccc1", "active"],
  ["C/C=C/CC(C)C(O)C1C(=O)NC(CC)C(=O)N(C)CC(=O)N(C)C(CC(C)C)C(=O)NC(C(C)C)C(=O)N(C)C(CC(C)C)C(=O)NC(C)C(=O)NC(C)C(=O)N(C)C(CC(C)C)C(=O)N(C)C(CC(C)C)C(=O)N(C)C(C(C)C)C(=O)N1C (configuration not stated)", "inactive"],
  ["CC(=O)OCC(=O)[C@@]1(O)CCC2C3C[C@H](C)C4=CC(=O)C=CC4(C)C3[C@@H](O)CC21C (some centres not stated)", "inactive"]
]}

Enquiry: Outcome? NC[C@H]1O[C@H](OC2[C@@H](N)C[C@@H](N)[C@H](O[C@H]3O[C@H](CO)[C@@H](O)[C@H](N)[C@H]3O)[C@H]2O)[C@H](O)[C@@H](O)[C@@H]1O (some centres not stated)
Return: inactive

Enquiry: Outcome? `CC(=O)Oc1ccccc1C(=O)Oc1ccccc1C(=O)O`
Return: inactive
